- METHOD DESCRIPTION: Antagonist activity at human CXCR4 receptor expressed in CCRF-CEM cells assessed as inhibition of CXCL12-induced calcium release by calcium flux assay
- Format: cell-based
MEASURE: IC50 (nM)
API: value field is a number in nM; no unit string.

Solved cases (4 shown):
COMPOUND SMILES	UNITS LABEL	MEASURED VALUE
c1cnc2c(c1)CN[C@@H](CN(CCCCNC1COC1)[C@H]1CCCc3cccnc31)C2	nM	160
NCc1ccc(CN(C[C@H]2Cc3ncccc3CN2)[C@H]2CCCc3cccnc32)cc1	nM	110
NCCCCN(C[C@@H]1Cc2nccnc2CN1)[C@H]1CCCc2cccnc21	nM	130
NC/C=C/CN(C[C@H]1Cc2ncccc2CN1)[C@H]1CCCc2cccnc21	nM	150

Now let's try a different one.
Look up IC50: `CN(CCCCN(C[C@H]1Cc2ncccc2CN1)[C@H]1CCCc2cccnc21)C1CCOCC1`
110

---

- METHOD DESCRIPTION: Permeability of compound at pH 7.4 incubated for 4 hrs by PAMPA assay
- Type: ADME
- CONDITION DETAILS: read-out: permeability
MEASURE: Papp at 4 h (×10⁻⁶ cm/s)
API: value field is a number in ×10⁻⁶ cm/s; no unit string.

Solved cases (3 shown):
COMPOUND SMILES	Papp at 4 h / ×10⁻⁶ cm/s
CN(C[C@H]1Cc2ncccc2CN1)[C@H]1CCCc2cccnc21	130
c1cnc2c(c1)CN[C@@H](CN(CCCC1CCNCC1)[C@H]1CCCc3cccnc31)C2	2.4
CCN(CC)CCCCN(C[C@H]1Cc2ncccc2CN1)[C@H]1CCCc2cccnc21	24

Look up Papp at 4 h: `c1cnc2c(c1)CN[C@@H](CN(CCCCNC1COC1)[C@H]1CCCc3cccnc31)C2`
30

Look up Papp at 4 h: `CN(C[C@@H]1Cc2ncccc2CN1)[C@H]1CCCc2cccnc21`
100

Look up Papp at 4 h: `NC/C=C/CN(C[C@H]1Cc2ncccc2CN1)[C@H]1CCCc2cccnc21`
1.5

Look up Papp at 4 h: `c1cnc2c(c1)CN[C@@H](CN(CCCCNC1CCOCC1)[C@H]1CCCc3cccnc31)C2`
0.8

---

Here's a batch of molecules along with measured pIC50 for Muscarinic acetylcholine receptor M2 (Homo sapiens, UniProt P08172).
pIC50: −log10 of the molar value.

COMPOUND SMILES	pIC50
CN(CCCCN(C[C@H]1Cc2ncccc2CN1)[C@H]1CCCc2cccnc21)C1CCC(F)(F)CC1	< 4.52
c1cnc2c(c1)CN[C@@H](CN(CCCCNC1CCOCC1)[C@H]1CCCc3cccnc31)C2	< 4.52

Now let's try a different one.
Look up pIC50: `c1cnc2c(c1)CN[C@@H](CN(CCCC1CCNCC1)[C@H]1CCCc3cccnc31)C2`
< 4.52

---

- EXPERIMENTAL TARGET: Neuronal acetylcholine receptor subunit alpha-7 (Homo sapiens, UniProt P36544)
- Sequence (P36544 whole entry): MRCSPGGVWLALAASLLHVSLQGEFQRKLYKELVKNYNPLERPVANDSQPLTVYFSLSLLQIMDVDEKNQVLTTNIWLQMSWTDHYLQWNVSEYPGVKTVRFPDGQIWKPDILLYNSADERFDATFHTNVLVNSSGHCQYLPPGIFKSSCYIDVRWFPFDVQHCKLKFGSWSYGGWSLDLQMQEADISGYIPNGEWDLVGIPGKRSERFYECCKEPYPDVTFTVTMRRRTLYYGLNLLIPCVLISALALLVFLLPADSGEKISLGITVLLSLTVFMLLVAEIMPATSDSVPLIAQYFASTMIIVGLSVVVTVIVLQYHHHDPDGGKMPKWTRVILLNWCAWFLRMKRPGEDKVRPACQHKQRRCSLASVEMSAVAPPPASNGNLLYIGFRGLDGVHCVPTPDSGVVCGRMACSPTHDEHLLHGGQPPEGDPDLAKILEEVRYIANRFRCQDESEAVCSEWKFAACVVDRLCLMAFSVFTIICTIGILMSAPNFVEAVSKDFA
- METHOD DESCRIPTION: Inhibition of alpha7 nicotinic acetylcholine receptor (unknown origin)
MEASURE: IC50

Solved cases (2 shown):
COMPOUND SMILES	IC50
c1cnc2c(c1)CN[C@@H](CN(CCCCNC1CCOCC1)[C@H]1CCCc3cccnc31)C2	> 30 µM
CN(CCCCN(C[C@H]1Cc2ncccc2CN1)[C@H]1CCCc2cccnc21)C1CCOCC1	> 30 µM

Now let's try a different one.
// lookup IC50 | system=Neuronal acetylcholine receptor subunit alpha-7 (Homo sapiens, UniProt P36544) | key= `NCCCCN(C[C@H]1Cc2ccccc2CN1)[C@H]1CCCc2cccnc21`
> 30 µM

---

- METHOD DESCRIPTION: Metabolic stability in human liver microsomes assessed compound remaining measured after 10 mins in presence of NADPH
- Format: ADME, Microsome
- CONDITION DETAILS: read-out: Stability
Items are presented alongside their recorded remaining at 10 min.
API: value field is a number in %; no unit string.

Solved cases (6 shown):
COMPOUND SMILES	UNITS LABEL	MEASURED VALUE
FC1(F)CCC(NCCCCN(C[C@H]2Cc3ncccc3CN2)[C@H]2CCCc3cccnc32)CC1	%	88
NCCCCN(C[C@@H]1Cc2cccnc2CN1)[C@H]1CCCc2cccnc21	%	92
NCCCCN(C[C@H]1Cc2ncccc2CN1)[C@H]1CCCc2cccnc21	%	100
NC/C=C\CN(C[C@H]1Cc2ncccc2CN1)[C@H]1CCCc2cccnc21	%	85
CN(CCCCN(C[C@H]1Cc2ncccc2CN1)[C@H]1CCCc2cccnc21)C1CCC(F)(F)CC1	%	61
c1cnc2c(c1)CN[C@@H](CN(CCCCN1CCOCC1)[C@H]1CCCc3cccnc31)C2	%	100

Look up remaining at 10 min: `CN(C)CCCCN(C[C@H]1Cc2ncccc2CN1)[C@H]1CCCc2cccnc21`
100

Look up remaining at 10 min: `NCc1ccc(CN(C[C@H]2Cc3ncccc3CN2)[C@H]2CCCc3cccnc32)cc1`
100

Look up remaining at 10 min: `c1cnc2c(c1)CN[C@@H](CN(CCCCN(C1COC1)C1COC1)[C@H]1CCCc3cccnc31)C2`
62

Look up remaining at 10 min: `NC(=O)NCCCCN(C[C@H]1Cc2ncccc2CN1)[C@H]1CCCc2cccnc21`
91

Look up remaining at 10 min: `c1cnc2c(c1)CN[C@@H](CN(CCCCNC1COC1)[C@H]1CCCc3cccnc31)C2`
97

Look up remaining at 10 min: `c1cnc2c(c1)CN[C@@H](CN(CCCCNC1CCOCC1)[C@H]1CCCc3cccnc31)C2`
97

---

- METHOD DESCRIPTION: Metabolic stability in human liver microsomes assessed compound remaining measured after 10 mins in presence of NADPH
- Format: ADME, Microsome
- CONDITION DETAILS: read-out: Stability
Items are presented alongside their recorded remaining at 10 min.
API: value field is a number in %; no unit string.

COMPOUND SMILES	MEASURE	UNITS LABEL	MEASURED VALUE
CN(C[C@@H]1Cc2ncccc2CN1)[C@H]1CCCc2cccnc21	remaining at 10 min	%	100
NC(=O)NC/C=C/CN(C[C@H]1Cc2ncccc2CN1)[C@H]1CCCc2cccnc21	remaining at 10 min	%	93

Now let's try a different one.
Look up remaining at 10 min: `NCCCCN(C[C@@H]1Cc2ncccc2CN1)[C@H]1CCCc2cccnc21`
98

Provenance of the data: ChEMBL document CHEMBL5046278
